Values from the supplement of paper PMC13380429

inhibition of SARS-CoV-2 cytopathic effect values by entry
# Test system: Vero E6 infected with SARS-CoV-2
# assay-summary: inhibition of SARS-CoV-2 cytopathic effect; higher = more antiviral protection, active = above 15
# condition-label: 8.33 nM; 48 h
// units = %; emit number, no label

[
  {
    "molecule": "Cc1ccc(F)cc1C(=O)Nc1ccc(C(=O)N2Cc3cccn3Cc3ccccc32)c(Cl)c1",
    "value": 2.67
  },
  {
    "molecule": "CC(C)(C)n1nc(-c2cccc3ccccc23)c2c(N)ncnc21",
    "value": 1.77
  },
  {
    "molecule": "CC(=O)c1ccc(NS(C)(=O)=O)c(Oc2ccc(F)cc2F)c1",
    "value": 0.47
  }
]

[Q] Endpoint output: inhibition of SARS-CoV-2 cytopathic effect of CSc1ccc(C(=O)/C=C/c2cc(C)c(OC(C)(C)C(=O)O)c(C)c2)cc1 . Value?
[A] 1.58
